Data origin, for the record: patent US20170240629A1

molecular target: cynomolgus IL-1beta (cynomolgus, UniProt P79182 117-268); assay: SPR (BIAcore); antibody captured by anti-Fc, IL-1beta injected
EXPERIMENTAL_READOUT: kon (M⁻¹ s⁻¹)

| BINDER | RECORDED_NUMBER |
| --- | --- |
| huH34-3 (antibody, V domains shown, VH = 11 and VL = 16 read by analogy with huH34-2) VH: QVQLVQSGAEVKKPGASVKVSCKASGYTFTGYYMHWVRQAPGQGLEWIGYISSYSAFTTYNQKFRGRATFTVDTSISTAYMELSRLRSDDTAVYYCVRSDYYGTSLYWGQGTLVTVSS VL: EIVLTQSPATLSLSPGERATLSCRASSSVSYMHWSQQKPGQAPRLLIYSTSNLASGIPARFSGSGSGTDFTLTISSLEPEDFAVYYCHQWSNYYTFGQGTKLEIK | 2.21e+06 |
